Test Protocol: Toxicity liver stage against HepG2, at 10uM
Format: cell-based
Parameters: test concentration 10 uM, cell line HepG2-A16-CD81EGFP
Applied Conditions: human, HepG2-A16-CD81EGFP cells; read-out: INHIBITION
Recorded cytotoxicity at 10 µM by entry
Property Measured: cytotoxicity at 10 µM (%)

{"columns": ["Compound", "Experimental Value"],
 "data": [
  ["Cc1c(S(=O)(=O)N2CCCCC2c2nnc(-c3cccs3)o2)cnn1C (centres undefined)", 3.22],
  ["Cc1cccnc1CNC(=O)NC(C)Cc1c(C)nn(C)c1C (centres undefined)", 3.92],
  ["CC(C)CN1CC[C@@H]2[C@@H]1CCN2S(=O)(=O)c1cn(C)cn1", 7.86],
  ["CN(C)S(=O)(=O)N1C[C@H]2CCC[C@@]2(COCc2ccccn2)C1", 0.718]
]}

---

Test Protocol: Toxicity liver stage against HepG2, at 10uM
Assay type: cell-based
Parameters: test concentration 10 uM, cell line HepG2-A16-CD81EGFP
Applied Conditions: human, HepG2-A16-CD81EGFP cells; read-out: INHIBITION
Recorded cytotoxicity at 10 µM by entry

{"columns": ["Compound", "cytotoxicity at 10 µM, %"],
 "data": [
  ["Cc1ccoc1C(=O)N1CCO[C@H]2[C@H](OCC3CCOCC3)CC[C@@H]21", -6.42],
  ["CCCC(=O)N(Cc1ccncc1)C(C)CC (stereo not given)", 9.66],
  ["CCOc1ccc(Br)cc1C1CCCCN1 (stereo not given)", 7.16],
  ["CCOC(C)c1nc(CN2CCC(C3OCCO3)CC2)cs1 (stereo not given)", -1.91],
  ["NC(=O)C(NC(=O)COCCc1ccccc1)c1ccccc1F (stereo not given)", -11],
  ["Cn1nccc1C(=O)N1CCOC(Cc2ccc(F)cc2)C1 (stereo not given)", 5.08],
  ["Cc1nc(COC[C@@H]2CC[C@H]3NCC[C@H]3O2)cs1", -3.15],
  ["O=C(CCC1CCN(Cc2ccncc2)CC1)Nc1ccccc1Cl", -3.9],
  ["Cc1nc(Cn2cnc3c(c(Br)nn3C)c2=O)cs1", 8.84],
  ["CCO[C@H]1C[C@@H](O)C12CCN(C1Cc3ccccc3C1)CC2", 4.54],
  ["Cc1ccoc1C(=O)NCCOc1ccc(C(F)(F)F)cn1", -4.02],
  ["CCOc1cc2c(cc1CN1CCC3(CC1)CNC(=O)C3)CCC2", -2.04],
  ["Cc1nn(C)cc1C(=O)N1CCCC(c2nccn2Cc2cscn2)C1 (stereo not given)", -4.32],
  ["N#CCCCn1nnnc1Cc1ccc(Br)cc1", 1.56],
  ["O=S(=O)(Nc1cn[nH]c1)c1ccc(Br)c(F)c1", 0.462],
  ["COc1cc(N2C[C@H](C(=O)NC3CC3)[C@@H]3CCO[C@@H]3C2)ncn1", -5.47],
  ["CCn1cc(C2CCN(Cc3ccnc(N(C)C)c3)CC2)cn1", 11],
  ["CCCS(=O)(=O)N1Cc2c(ncn2Cc2ccccc2)C[C@H]1C(=O)OC", 0.434],
  ["COc1cc(C)sc1C(=O)NCCC(=O)N(C)Cc1ccccc1", -8.78],
  ["CC(CCc1ccccc1)N1CCC(C(=O)NCc2ccccc2)CC1 (stereo not given)", 11]
]}
